Reported values of GI50 for individual entries
Tested on: SF-268
protocol-summary: Growth inhibition of human SF268 cells after 48 hrs
Format: functional
test-context: SF-268, 48 h
The response must be a number in µg/mL with no trailing unit.

Below: 2 molecules and their reported GI50.
chemical-smiles	GI50 (µg/mL)
C[C@@H]1CC[C@@]2(OC1)O[C@H]1C[C@H]3[C@@H]4CC=C5C[C@@H](O[C@@H]6O[C@H](CO)[C@@H](O[C@@H]7OC[C@H](O)[C@H](O)[C@H]7O)[C@H](O)[C@H]6O[C@@H]6O[C@@H](C)[C@H](O)[C@@H](O)[C@H]6O)CC[C@]5(C)[C@H]4CC[C@]3(C)[C@H]1[C@@H]2C	0.68
C=C1CC[C@@]2(OC1)O[C@H]1C[C@H]3[C@@H]4CC=C5C[C@@H](O[C@@H]6O[C@H](CO)[C@@H](O[C@@H]7O[C@@H](C)[C@H](O)[C@@H](O)[C@H]7O)[C@H](O)[C@H]6O[C@@H]6O[C@@H](C)[C@H](O)[C@@H](O)[C@H]6O)CC[C@]5(C)[C@H]4CC[C@]3(C)[C@H]1[C@@H]2C	1.3

Identify GI50 associated with the molecule C[C@@H]1CC[C@@]2(OC1)O[C@H]1C[C@H]3[C@@H]4CC=C5C[C@@H](O[C@@H]6O[C@H](CO)[C@@H](O)[C@H](O)[C@H]6O[C@@H]6O[C@@H](C)[C@H](O)[C@@H](O)[C@H]6O)CC[C@]5(C)[C@H]4CC[C@]3(C)[C@H]1[C@@H]2C
1.8

Identify GI50 associated with the molecule C[C@@H]1CC[C@@]2(OC1)O[C@H]1C[C@H]3[C@@H]4CC=C5C[C@@H](O[C@@H]6O[C@H](CO)[C@@H](O[C@@H]7OC[C@@H](O)[C@H](O)[C@H]7O)[C@H](O)[C@H]6O[C@@H]6O[C@@H](C)[C@H](O)[C@@H](O)[C@H]6O)CC[C@]5(C)[C@H]4CC[C@]3(C)[C@H]1[C@@H]2C
1.3

----------
System: Escherichia coli
protocol-summary: Antimicrobial activity against Escherichia coli at 64 ug/mL by broth micro dilution assay
Format: functional, organism-based
Active and inactive are the calls of the source. The calls are words filed in the database; no cut-off is given here.
measurement-label: Activity

compound	measurement-label	data-value
C[C@@H]1CC[C@@]2(OC1)O[C@H]1C[C@H]3[C@@H]4CC=C5C[C@@H](O)CC[C@]5(C)[C@H]4CC[C@]3(C)[C@H]1[C@@H]2C [DISOGENIN]	Activity	inactive
C[C@@H]1CC[C@@]2(OC1)O[C@H]1C[C@H]3[C@@H]4CC=C5C[C@@H](O[C@@H]6O[C@H](CO)[C@@H](O[C@@H]7O[C@@H](C)[C@H](O)[C@@H](O)[C@H]7O)[C@H](O)[C@H]6O[C@@H]6O[C@@H](C)[C@H](O)[C@@H](O)[C@H]6O)CC[C@]5(C)[C@H]4CC[C@]3(C)[C@H]1[C@@H]2C [DIOSCIN]	Activity	inactive
C[C@@H]1CC[C@@]2(OC1)O[C@H]1C[C@H]3[C@@H]4CC=C5C[C@@H](O[C@@H]6O[C@H](CO)[C@@H](O[C@@H]7OC[C@H](O)[C@H](O)[C@H]7O)[C@H](O)[C@H]6O[C@@H]6O[C@@H](C)[C@H](O)[C@@H](O)[C@H]6O)CC[C@]5(C)[C@H]4CC[C@]3(C)[C@H]1[C@@H]2C [SANSEVISTATIN 2]	Activity	inactive

----------
System: Escherichia coli
protocol-summary: Antimicrobial activity against Escherichia coli at 64 ug/mL by broth micro dilution assay
Type: functional, organism-based
The source made the active and inactive calls. The calls are words filed in the database; no cut-off is given here.
measurement-label: Activity

molecule	data-value
C[C@@H]1CC[C@@]2(OC1)O[C@H]1C[C@H]3[C@@H]4[C@H](O)C=C5C[C@@H](O[C@@H]6O[C@H](CO)[C@@H](O)[C@H](O)[C@H]6O[C@@H]6O[C@@H](C)[C@H](O)[C@@H](O)[C@H]6O)CC[C@]5(C)[C@H]4CC[C@]3(C)[C@H]1[C@@H]2C [SANSEVIERIN A]	inactive
C=C1CC[C@@]2(OC1)O[C@H]1C[C@H]3[C@@H]4CC=C5C[C@@H](O[C@@H]6O[C@H](CO)[C@@H](O[C@@H]7O[C@@H](C)[C@H](O)[C@@H](O)[C@H]7O)[C@H](O)[C@H]6O[C@@H]6O[C@@H](C)[C@H](O)[C@@H](O)[C@H]6O)CC[C@]5(C)[C@H]4CC[C@]3(C)[C@H]1[C@@H]2C [SANSEVISTATIN 1]	inactive
C[C@@H]1CC[C@@]2(OC1)O[C@H]1C[C@H]3[C@@H]4CC=C5C[C@@H](O[C@@H]6O[C@H](CO)[C@@H](O[C@@H]7OC[C@@H](O)[C@H](O)[C@H]7O)[C@H](O)[C@H]6O[C@@H]6O[C@@H](C)[C@H](O)[C@@H](O)[C@H]6O)CC[C@]5(C)[C@H]4CC[C@]3(C)[C@H]1[C@@H]2C	inactive

----------
System: BXPC-3
protocol-summary: Growth inhibition of humanBxPC3 cells after 48 hrs
Format: functional
test-context: Homo sapiens, BXPC-3, 48 h
measurement-label: GI50 (µg/mL)
The response must be a number in µg/mL with no trailing unit.

Below: 2 compounds and their reported GI50.
compound	GI50 / µg/mL
C[C@@H]1CC[C@@]2(OC1)O[C@H]1C[C@H]3[C@@H]4CC=C5C[C@@H](O[C@@H]6O[C@H](CO)[C@@H](O)[C@H](O)[C@H]6O[C@@H]6O[C@@H](C)[C@H](O)[C@@H](O)[C@H]6O)CC[C@]5(C)[C@H]4CC[C@]3(C)[C@H]1[C@@H]2C [OPHIOPOGONIN C]	1.8
C[C@@H]1CC[C@@]2(OC1)O[C@H]1C[C@H]3[C@@H]4CC=C5C[C@@H](O[C@@H]6O[C@H](CO)[C@@H](O[C@@H]7OC[C@H](O)[C@H](O)[C@H]7O)[C@H](O)[C@H]6O[C@@H]6O[C@@H](C)[C@H](O)[C@@H](O)[C@H]6O)CC[C@]5(C)[C@H]4CC[C@]3(C)[C@H]1[C@@H]2C [SANSEVISTATIN 2]	0.93

Consider the record given below.
Identify GI50 associated with the compound C=C1CC[C@@]2(OC1)O[C@H]1C[C@H]3[C@@H]4CC=C5C[C@@H](O[C@@H]6O[C@H](CO)[C@@H](O[C@@H]7O[C@@H](C)[C@H](O)[C@@H](O)[C@H]7O)[C@H](O)[C@H]6O[C@@H]6O[C@@H](C)[C@H](O)[C@@H](O)[C@H]6O)CC[C@]5(C)[C@H]4CC[C@]3(C)[C@H]1[C@@H]2C [SANSEVISTATIN 1]
1.1
